# experiment_summary: Human HepG2 cell viability assay in 384 well format
# Assay type: toxicity, cell-based
# Design: dose 125 nL, time 70.5 hour; concentration not given beside the values
# condition_parameters: HepG2 cells, read-out: Inhibition
I'd be grateful if you could share measured cytotoxicity at 70.5 h for these entries.
Give me the value, and tack the unit on after it.

Below: 2 molecules and their reported cytotoxicity at 70.5 h.
>>> recorded_measurement("Cc1nc(C)c(C(=O)NCCNC(=O)Cc2ccccc2)s1")
"-1.65%"
>>> recorded_measurement("CCc1ncc2c(n1)CN(C(=O)CCCc1ccc(OC)cc1)C2")
"-6.31%"

Below is a list of molecules. For each, state its recorded cytotoxicity at 70.5 h.
1. Cc1noc(C2CCN(C(=O)CCc3ccccn3)CC2)n1
2. COc1ccc(C(=O)N2C[C@H]3CC[C@@H]2CN(C)C3)cc1Cl
3. Cc1cc2[nH]cc(C(=O)N3CCCCC3c3ccc(F)cc3)c(=O)n2n1 (stereo not drawn)
4. CCOc1ccc(C(=O)N2C[C@H]3CC[C@@H]2CN(C(=O)C2CCC2)C3)cc1
5. O=C1C[C@H]2[C@H](CCN2C(=O)c2cc[nH]n2)N1Cc1cccnc1
6. Cc1cnc(NC2CCc3c(ccc(=O)n3C)C2)nc1 (stereo not drawn)
7. CC(C)C(NC(=O)C1CC1)c1cc(O)nc(-c2cccnc2)n1 (stereo not drawn)
8. O=C(c1ccc2c(c1)CCC2)N1CCN(c2ccc(Cl)cn2)CC1

Response:
1. -4.44%
2. 47.4%
3. -3.07%
4. -0.418%
5. -9.27%
6. -4.77%
7. -0.322%
8. 6.01%

Below is a list of molecules. For each, state its recorded cytotoxicity at 70.5 h.
1. CCCS(=O)(=O)c1ccc(N2CCN(c3ccccn3)CC2)nn1
2. Cc1cnc(N2CCC3(CC(=O)N(Cc4csc(C)n4)C3)C2)nc1 (stereo not drawn)

Response:
["2.28%", "-11.1%"]

Below is a list of molecules. For each, state its recorded cytotoxicity at 70.5 h.
1. c1ccc(NC[C@@H]2CCC[C@@H]3CN(Cc4nccs4)C[C@@H]32)nc1
2. CS(=O)(=O)N1CCC(NC(=O)COc2ccc(Cl)cc2)CC1

Response:
-0.385%
-4.42%

Below is a list of molecules. For each, state its recorded cytotoxicity at 70.5 h.
1. Cc1ncsc1C(=O)N1CCN(CCC(C)C)CC1
2. CCCS(=O)(=O)N1CCCC(c2nc(-c3ccccc3)c[nH]2)C1 (stereo not drawn)
3. CCN(Cc1nonc1C)C(=O)Cn1nc(C(F)(F)F)cc1C
4. O=C(c1cc(COc2ccc3c(c2)OCO3)[nH]n1)N1CCCCO1
5. Cc1nc(C(C)(C)NC(=O)Nc2ccc(C#N)cc2)no1
6. COc1nn(C)c2c1CCCN(C(=O)c1cscn1)C2
7. O=C(C[S+]([O-])Cc1cccc(C(F)(F)F)c1)NC1CCCC1 (stereo not drawn)

Response:
-6.29%
-2.79%
-9.27%
20.1%
-4.52%
2.23%
-8.39%

Below is a list of molecules. For each, state its recorded cytotoxicity at 70.5 h.
1. c1ccc(N(CCn2cncn2)CC2CC2)cc1
2. CNC(=O)C(C)(C)N1CCC[C@H]1C(=O)NC1CC1

Response:
1: -4.37%; 2: -9.14%
